Endpoint summary: Ki, system: 5-hydroxytryptamine receptor 2C (Homo sapiens, UniProt P28335), multiple sources combined.
Biological target: 5-hydroxytryptamine receptor 2C (Homo sapiens, UniProt P28335)
Sequence (P28335 whole entry): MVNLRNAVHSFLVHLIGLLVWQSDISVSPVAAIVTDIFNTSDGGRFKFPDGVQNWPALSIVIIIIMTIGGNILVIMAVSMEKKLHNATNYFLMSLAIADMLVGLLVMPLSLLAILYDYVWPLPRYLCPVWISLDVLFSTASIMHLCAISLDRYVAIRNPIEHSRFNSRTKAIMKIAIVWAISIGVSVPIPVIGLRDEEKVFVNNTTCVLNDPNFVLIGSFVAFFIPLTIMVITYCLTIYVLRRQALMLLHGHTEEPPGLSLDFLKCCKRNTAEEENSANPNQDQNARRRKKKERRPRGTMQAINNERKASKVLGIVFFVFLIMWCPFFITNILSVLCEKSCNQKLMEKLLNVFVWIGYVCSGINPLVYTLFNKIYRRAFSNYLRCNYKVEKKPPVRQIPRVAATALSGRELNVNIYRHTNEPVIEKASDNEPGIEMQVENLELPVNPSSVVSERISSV
Kindly provide the numeric value in nM only, without the unit symbol.

Guide cases for Ki, answers given:
compound | measured.quantity | experimental.result
CSc1c(Cl)cc2c(c1Cl)CCN2C(=O)Nc1cccnc1 | Ki | 2.51
N#Cc1c[nH]c2c(C(=O)N3CCN(CCc4ccc(F)cc4F)CC3)cccc12 | Ki | 557
c1ccc(CN2CCCC(c3c(-c4ccccc4)[nH]c4ccccc34)C2)cc1 (stereo not given) | Ki | 2000
Cc1cc2c(cc1C(F)(F)F)N(C(=O)Nc1ccc(OCc3cncn3C)nc1)CC2 | Ki | 3.98
CN(C)CC1C[C@@H]2c3ccccc3Sc3ccccc3[C@H]2O1 (stereo not given in full) | Ki | 24.7

Input: Lab note: need Ki with 5-hydroxytryptamine receptor 2C (Homo sapiens, UniProt P28335) for entry COc1ccc(CCN(CCCc2ccc(Cl)cc2)CCc2ccc3c(c2)OCO3)cc1OC , please look it up.
Output: 235

Input: Give recorded Ki with 5-hydroxytryptamine receptor 2C (Homo sapiens, UniProt P28335) for the following compound: c1ccc2c(c1)Cc1ccccc1[C@H]1OC(CN3CCOCC3)C[C@H]21 (stereo not given in full)
Output: 27

Input: Recall the recorded Ki for CC(C)n1nc2c(c1-c1ccccc1)CCNCC2 with 5-hydroxytryptamine receptor 2C (Homo sapiens, UniProt P28335) and state it.
Output: 130

Input: Form field: Ki recorded for CCN(CC)CCCC(C)Nc1cnc(C(=O)Nc2ccc(Cl)c3cccnc23)cn1 (stereo not given) with 5-hydroxytryptamine receptor 2C (Homo sapiens, UniProt P28335) (enter value)
Output: 471
